Could you please report measured combination Emax for the items listed next?
# Test system: NCI-H211 (Small Cell Lung Carcinoma)
# protocol.summary: combination Emax (second highest fraction inhibited in the dose matrix, 72 h); higher = more inhibition; extreme values may be limits of the assay
// print number alone

Q: Recorded combination Emax of COc1nnc2ccc(N3CCC(c4ccc(OCCN5CCN(C)C(=O)[C@H]5C)cc4)CC3)nn12 [AZD5153] + CCN(CCO)CCCOc1ccc2c(Nc3cc(CC(=O)Nc4cccc(F)c4)[nH]n3)ncnc2c1 [AZD2811] (first compound max 1 µM, 7x7, partner max 1 µM) , please.
A: 1

Q: Recorded combination Emax of CS(=O)(=O)CCNCc1ccc(-c2ccc3ncnc(Nc4ccc(OCc5cccc(F)c5)c(Cl)c4)c3c2)o1 [Lapatinib] + C[C@@H](Oc1cc(-c2cnn(C3CCNCC3)c2)cnc1N)c1c(Cl)ccc(F)c1Cl [Crizotinib] (first compound max 10 µM, 7x7, partner max 10 µM) , please.
A: 0.948

Q: Recorded combination Emax of CS(=O)(=O)CCNCc1ccc(-c2ccc3ncnc(Nc4ccc(OCc5cccc(F)c5)c(Cl)c4)c3c2)o1 [Lapatinib] + NC1(c2ccc(-c3nc4ccn5c(=O)[nH]nc5c4cc3-c3ccccc3)cc2)CCC1 [MK-2206] (first compound max 10 µM, 7x7, partner max 10 µM) , please.
A: 0.944

Q: Recorded combination Emax of C[C@@H](Nc1cc(F)cc(F)c1)c1cc(C(=O)N(C)C)cc2c(=O)cc(N3CCOCC3)oc12 [AZD8186] + CC(=O)c1c(C)c2cnc(Nc3ccc(N4CCNCC4)cn3)nc2n(C2CCCC2)c1=O [Palbociclib] (first compound max 10 µM, 7x7, partner max 10 µM) , please.
A: 0.754

Q: Recorded combination Emax of Cc1c2c(nn1C)CSCc1cc(n(C)n1)CSc1cc(c3ccccc3c1)OCCCc1c(C(=O)O)n(C)c3c-2c(Cl)ccc13 [AZD5991] + CS(=O)(=O)CCNCc1ccc(-c2ccc3ncnc(Nc4ccc(OCc5cccc(F)c5)c(Cl)c4)c3c2)o1 [Lapatinib] (first compound max 1 µM, 7x7, partner max 10 µM) , please.
A: 0.979

Q: Recorded combination Emax of NC1(C(=O)N[C@@H](CCO)c2ccc(Cl)cc2)CCN(c2ncnc3[nH]ccc23)CC1 [Capivasertib] + Cn1cnc2c(F)c(Nc3ccc(Br)cc3Cl)c(C(=O)NOCCO)cc21 [Selumetinib] (first compound max 10 µM, 7x7, partner max 10 µM) , please.
A: 0.568

----------
# System: MFH-ino (Other Solid Carcinomas)
# protocol.summary: combination Emax (second highest fraction inhibited in the dose matrix, 72 h); higher = more inhibition; extreme values may be limits of the assay
observed.property: combination Emax
// print number alone

Q: Find combination Emax (MFH-ino (Other Solid Carcinomas)) for the entry CN(C)CCCOc1ccc(-c2ccc3ncc4c(c3c2)n(C2CCOCC2)c(=O)n4C)cn1 [AZD0156] + C[C@@H]1COCCN1C2=NC(=NC(=C2)C3(CC3)[S@](=N)(=O)C)C4=C5C=CNC5=NC=C4 [AZD6738] (first compound max 1 µM, 7x7, partner max 10 µM)
A: 0.403

Q: Find combination Emax (MFH-ino (Other Solid Carcinomas)) for the entry COc1nnc2ccc(N3CCC(c4ccc(OCCN5CCN(C)C(=O)[C@H]5C)cc4)CC3)nn12 [AZD5153] + CC1(C)CCC(CN2CCN(c3ccc(C(=O)NS(=O)(=O)c4ccc(NCC5CCOCC5)c([N+](=O)[O-])c4)c(Oc4cnc5[nH]ccc5c4)c3)CC2)=C(c2ccc(Cl)cc2)C1 [Venetoclax] (first compound max 1 µM, 7x7, partner max 1 µM)
A: 0.415

Q: Find combination Emax (MFH-ino (Other Solid Carcinomas)) for the entry Cc1c2c(nn1C)CSCc1cc(n(C)n1)CSc1cc(c3ccccc3c1)OCCCc1c(C(=O)O)n(C)c3c-2c(Cl)ccc13 [AZD5991] + CS(=O)(=O)CCNCc1ccc(-c2ccc3ncnc(Nc4ccc(OCc5cccc(F)c5)c(Cl)c4)c3c2)o1 [Lapatinib] (first compound max 1 µM, 7x7, partner max 10 µM)
A: 0.234

Q: Find combination Emax (MFH-ino (Other Solid Carcinomas)) for the entry Cc1cc2ncnn2cc1Nc1ncc2c(n1)n(C1CCOCC1)c(=O)n2C [AZD7648] + C=CCn1c(=O)c2cnc(Nc3ccc(N4CCN(C)CC4)cc3)nc2n1-c1cccc(C(C)(C)O)n1 [AZD1775] (first compound max 10 µM, partner max 1 µM)
A: 0.39

Q: Find combination Emax (MFH-ino (Other Solid Carcinomas)) for the entry COc1nnc2ccc(N3CCC(c4ccc(OCCN5CCN(C)C(=O)[C@H]5C)cc4)CC3)nn12 [AZD5153] + Cn1cnc2c(F)c(Nc3ccc(Br)cc3Cl)c(C(=O)NOCCO)cc21 [Selumetinib] (first compound max 1 µM, 7x7, partner max 10 µM)
A: 0.636

Q: Find combination Emax (MFH-ino (Other Solid Carcinomas)) for the entry CC(=O)c1c(C)c2cnc(Nc3ccc(N4CCNCC4)cn3)nc2n(C2CCCC2)c1=O [Palbociclib] + Cn1cnc2c(F)c(Nc3ccc(Br)cc3Cl)c(C(=O)NOCCO)cc21 [Selumetinib] (first compound max 10 µM, 7x7, partner max 10 µM)
A: 0.429

Q: Find combination Emax (MFH-ino (Other Solid Carcinomas)) for the entry Cc1cc2ncnn2cc1Nc1ncc2c(n1)n(C1CCOCC1)c(=O)n2C [AZD7648] + C[C@@H]1COCCN1C2=NC(=NC(=C2)C3(CC3)[S@](=N)(=O)C)C4=C5C=CNC5=NC=C4 [AZD6738] (first compound max 10 µM, 7x7, partner max 10 µM)
A: 0.499

----------
Could you please report measured combination Emax for the items listed next?
# System: KM-H2 (Hodgkin's Lymphoma)
# protocol.summary: combination Emax (second highest fraction inhibited in the dose matrix, 72 h); higher = more inhibition; extreme values may be limits of the assay

Q: Recorded combination Emax of Cc1nc(Nc2ncc(C(=O)Nc3c(C)cccc3Cl)s2)cc(N2CCN(CCO)CC2)n1 [Dasatinib] + CC(=O)Nc1cccc(-n2c(=O)n(C3CC3)c(=O)c3c(Nc4ccc(I)cc4F)n(C)c(=O)c(C)c32)c1 [Trametinib] (first compound max 2 µM, 7x7, partner max 1 µM) , please.
A: 0.234

Q: Recorded combination Emax of COc1cccc(OCCCN)c1-c1cc(Nc2cnc(C#N)cn2)n[nH]1 [Prexasertib] + C[C@@H]1COCCN1C2=NC(=NC(=C2)C3(CC3)[S@](=N)(=O)C)C4=C5C=CNC5=NC=C4 [AZD6738] (first compound max 1 µM, 7x7, partner max 10 µM) , please.
A: 0.92

----------
# Tested on: DSH1 (Bladder Carcinoma);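 note: after 72 h of two-drug dosing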
# protocol.summary: Bliss excess, mean over the matrix (fraction); higher = more synergy
// not met strictly below -0.04 in Bliss excess; met otherwise

Q: # check: Bliss excess of CC1(C)CCC(CN2CCN(c3ccc(C(=O)NS(=O)(=O)c4ccc(NCC5CCOCC5)c([N+](=O)[O-])c4)c(Oc4cnc5[nH]ccc5c4)c3)CC2)=C(c2ccc(Cl)cc2)C1 [Venetoclax] + C[C@@H]1COCCN1C2=NC(=NC(=C2)C3(CC3)[S@](=N)(=O)C)C4=C5C=CNC5=NC=C4 [AZD6738] (first compound max 1 µM, 7x7, partner max 10 µM) is greater than or equal to -0.04
A: not met

Q: # check: Bliss excess of C=CCn1c(=O)c2cnc(Nc3ccc(N4CCN(C)CC4)cc3)nc2n1-c1cccc(C(C)(C)O)n1 [AZD1775] + Nc1ccn([C@@H]2O[C@H](CO)[C@@H](O)C2(F)F)c(=O)n1 [Gemcitabine] (first compound max 1 µM, partner max 0.3 µM) is greater than or equal to -0.04
A: not met

Q: # check: Bliss excess of COc1cc2ncnc(Nc3ccc(F)c(Cl)c3)c2cc1OCCCN1CCOCC1 [Gefitinib] + CC(C)n1c(=O)n(C)c2cnc3cc(F)c(-c4ccc(OCCCN5CCCCC5)nc4)cc3c21 [AZD1390] (first compound max 10 µM, 7x7, partner max 0.3 µM) is greater than or equal to -0.04
A: met

Q: # check: Bliss excess of CC1(C)CCC(CN2CCN(c3ccc(C(=O)NS(=O)(=O)c4ccc(NCC5CCOCC5)c([N+](=O)[O-])c4)c(Oc4cnc5[nH]ccc5c4)c3)CC2)=C(c2ccc(Cl)cc2)C1 [Venetoclax] + C1CN(CCC1(C(=O)N[C@@H](CCO)C2=CC=C(C=C2)Cl)N)C3=NC=NC4=C3C=CN4 [Capivasertib] (first compound max 1 µM, 7x7, partner max 3 µM) is greater than or equal to -0.04
A: not met

Q: # check: Bliss excess of N#Cc1cnc(Nc2cc(NC[C@H]3CNCCO3)c(C(F)(F)F)cn2)cn1 [SRA737] + Nc1ccn([C@@H]2O[C@H](CO)[C@@H](O)C2(F)F)c(=O)n1 [Gemcitabine] (first compound max 10 µM, 7x7, partner max 0.3 µM) is greater than or equal to -0.04
A: met

Q: # check: Bliss excess of Cn1cnc2c(F)c(Nc3ccc(Br)cc3Cl)c(C(=O)NOCCO)cc21 [Selumetinib] + CC(C)n1c(=O)n(C)c2cnc3cc(F)c(-c4ccc(OCCCN5CCCCC5)nc4)cc3c21 [AZD1390] (first compound max 10 µM, 7x7, partner max 0.3 µM) is greater than or equal to -0.04
A: met

Cited source for all entries: the supplement of paper PMC11061612
